Test: antivirals against arbovirus infection, primary screen, cell-based, full library, 10K replicate subset (AID 1251)
Conditions: arbovirus infection cell-based antiviral screen, at 10 µM, stronger effect = higher value
Hit rate of the full screen: of about 200,000 compounds, about 720 (0.36%) were called active. The sample as a whole holds a higher share of actives than the screen did.
result_type: inhibition (%)
Unit % implied. Number only.

O=c1[nH]c(CN2CCOCC2)nc2scc(-c3ccccc3)c12 | 5.07

inhibition in this record for Cc1ccc(C(CC(=O)O)Nc2nc(N3CCCCC3)nc(N3CCCCC3)n2)cc1 (stereo not given) : 31.3

inhibition in this record for O=C(c1ccc2ccccc2n1)N1CCN(c2ccccc2Cl)CC1 : 36

inhibition in this record for CCCc1cc(=O)[nH]c(SCc2cc(=O)oc3c(C)c(C)ccc23)n1 : 5.14

inhibition in this record for CCOC(=O)Cn1c(N)c(C(=O)OC)sc1=S : 0.02

inhibition in this record for COc1cc(OC)cc(C(=O)OCC(=O)Nc2sccc2C(N)=O)c1 : 4.53

inhibition in this record for CCOC(=O)c1c(Cc2ccc(Cl)cc2)c[nH]c1C : -0.75

inhibition in this record for CCOC(=O)c1oc2ccccc2c1NC(=O)c1cccs1 : -1.76

inhibition in this record for CCOC(=O)c1sc(=S)n2c1[nH]c(=O)c1ccc(C(=O)OC)cc12 : 32.4

inhibition in this record for Cc1ccc(-c2csc(NC(=O)c3cccs3)n2)cc1 : 103

inhibition in this record for COc1ccc2cc(CCl)c(Cl)nc2c1 : -7.11

inhibition in this record for CCC(C)NCCOCCOc1ccc(Br)cc1C (stereo not given) : -28.9

inhibition in this record for CSCCNCc1cn(-c2ccc(F)cc2F)nc1-c1ccccc1C : -1.44

inhibition in this record for CCOC(=O)c1sc(=S)n(-c2cccc(OC)c2)c1N : 0.93

inhibition in this record for CC1Cc2nc(SCC(=O)Nc3ccccc3F)n(C)c(=O)c2S1 (stereo not given) : 6.16
